Biological target: TEAD2 (Homo sapiens (Human))
Assay: CMP assay (CPM fluorescence detection of free CoA)
Type: biochemical
Settings: Table 3; unit inferred; read-out: TEAD2 palmitoylation IC50
Please go through the items and note down their IC50.
Answers are plain numbers, in nM.

Some solved entries appear below for comparison.
COMPOUND	EXPERIMENTAL RESULT
COc1ccc(Nc2ccc(N(C)c3ccc(N4CCCCC4)cc3)cc2)c(C(=O)O)c1 [CP-555]	10
COc1ccc(Nc2ccc(N(C)c3ccc(C4CC5CCC4C5)cc3)cc2F)c(C(=O)O)c1 (centres unmarked) [CP-585]	320
COc1ccc(Nc2ccc(N(C)c3ccc(C4CCCCC4)cc3)nc2)c(C(=O)O)c1 [CP-598]	50
COc1ccc(Nc2ccc(Oc3ccc(C45CC6CC(C)(CC(C)(C6)C4)C5)cc3Cl)cc2F)c(C(=O)O)c1 [CP-570]	650
COc1ccc(Nc2ccc(N(C)c3ccc(OCC(F)(F)F)cc3)cc2C)c(C(=O)O)c1 [CP-565]	510
COc1ccc(Nc2ccc(N(C)c3ccc(C45CC6CC(CC(C6)C4)C5)cc3)cc2C)c(C(=O)O)c1 [CP-551]	2
COc1ccc(Nc2ccc(N(C)c3ccc(C4CCCCC4)cc3)cc2F)c(C(=O)O)c1 [CP-549]	2400

Moving on to the next compound.
Name the recorded IC50 of the compound listed here: Cc1cc(N(C)c2ccc(C3CCCCC3)cc2)ccc1Nc1ccc(OC2CC2)cc1C(=O)O [CP-619] 750

* * *

Can you tell me inhibition at 10 µM for the items I'm about to list?
Molecular target: TEAD2 (Homo sapiens (Human), UniProt Q15562)
Sequence (Q15562 whole entry): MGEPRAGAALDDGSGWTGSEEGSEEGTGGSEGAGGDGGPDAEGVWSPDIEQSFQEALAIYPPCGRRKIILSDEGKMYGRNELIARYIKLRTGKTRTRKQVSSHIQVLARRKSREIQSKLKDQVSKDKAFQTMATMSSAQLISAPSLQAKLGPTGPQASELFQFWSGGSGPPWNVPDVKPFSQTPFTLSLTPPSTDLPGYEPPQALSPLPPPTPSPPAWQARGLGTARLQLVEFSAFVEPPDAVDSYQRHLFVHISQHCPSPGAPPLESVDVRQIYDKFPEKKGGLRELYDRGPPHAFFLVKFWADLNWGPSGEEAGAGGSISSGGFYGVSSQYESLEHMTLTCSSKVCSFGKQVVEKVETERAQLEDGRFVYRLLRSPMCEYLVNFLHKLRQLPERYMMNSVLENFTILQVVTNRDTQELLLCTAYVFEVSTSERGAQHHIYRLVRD
Test: In vitro palmitoylation (TEAD2 autopalmitoylation, streptavidin blot)
Assay type: biochemical
Settings: compound at 10 μM; Table 2
Answers are plain numbers, in %.

Please review the entries below; each comes with its answer.
MOLECULE	UNIT SYMBOL	inhibition at 10 µM
COc1cccc2c1S(=O)(=O)N=C2Nc1ccc(C23CC4CC(CC(C4)C2)C3)cc1 [Compound 19]	%	35
CC12CC3CC(C)(C1)CC(c1ccc(NC(=O)c4cccc(Nc5ccccc5C(=O)O)c4)cc1)(C3)C2 [Compound 222]	%	45
O=C(O)c1cn(Cc2cccc(Nc3ccc(C45CC6CC(CC(C6)C4)C5)cc3Cl)c2)cn1 [Compound 127]	%	27
CC(C)(C)OC(=O)N(c1ccc(Nc2ccc(C34CC5CC(CC(C5)C3)C4)cc2Cl)cn1)c1ccccc1C(=O)O [Compound 76]	%	34
COC(=O)c1ccccc1Nc1ccc(C(=O)Nc2ccc(C34CC5CC(CC(C5)C3)C4)cc2Cl)cc1 [Compound 6]	%	0

I'm hoping you can list inhibition at 10 µM for every molecule here, please.
1. O=C(O)c1cncn1Cc1cccc(Nc2ccc(C34CC5CC(CC(C5)C3)C4)cc2Cl)c1 [Compound 128]
2. O=C(O)c1cccnc1Nc1cc(Nc2ccc(C34CC5CC(CC(C5)C3)C4)cc2)cc(C(F)(F)F)c1 [Compound 27]

92
90

* * *

Biological target: TEAD2 (Homo sapiens (Human))
Assay: CMP assay (CPM fluorescence detection of free CoA)
Type: biochemical
Settings: CMP assay; read-out: CMP IC50
ATTRIBUTE MEASURED: IC50 (µM)
One number for each entry, in µM.

Indicate its recorded IC50; the molecule in question is "C=CC(=O)c1ccccc1Nc1cccc(Nc2ccc(C34CC5CC(CC(C5)C3)C4)cc2)c1" 5.09

* * *

Molecular target: TEAD2 (Homo sapiens (Human), UniProt Q15562)
Test: In vitro palmitoylation (TEAD2 autopalmitoylation, streptavidin blot)
Format: biochemical
Settings: compound at 10 μM
Respond with 1 (yes) for inhibition at 10 µM values of 80% and above, 0 (no) for values below.

# example entries with known answers
MOLECULAR STRING	LABEL VALUE
C=CC(=O)c1ccccc1Nc1cccc(Nc2ccc(C34CC5CC(CC(C5)C3)C4)cc2)c1	0 (no)
CC(C)c1ccccc1-c1ccc(NC(=O)CC2CN(C(=O)OC(C)(C)C)C2)cc1	1 (yes)
O=C(Nc1ccc(C23CC4CC(CC(C4)C2)C3)cc1Cl)c1ccc2nc[nH]c2c1	0 (no)
CC(C)(C)OC(=O)c1ccc(Nc2ccc(Nc3ccccc3C(=O)O)cc2)cc1	1 (yes)
O=C(Nc1ccc(C23CC4CC(CC(C4)C2)C3)cc1)c1ccc2nc[nH]c2c1	0 (no)

Determine whether measured inhibition at 10 µM meets or exceeds 80% for "O=C(Nc1ccc(C23CC4CC(CC(C4)C2)C3)cc1)Nc1ccc2nc[nH]c2c1" 0 (no)

* * *

Target: TEAD2 (Homo sapiens (Human))
Assay: In vitro palmitoylation (TEAD2 autopalmitoylation, streptavidin blot)
Assay type: biochemical
Conditions: compound at 10 μM; Table 2
ATTRIBUTE MEASURED: inhibition at 10 µM (%)
One number for each entry, in %.

Some molecules with recorded inhibition at 10 µM:
O=C(O)c1cccnc1Nc1ccc(Nc2cccc(C34CC5CC(CC(C5)C3)C4)c2)cc1 80
O=C(O)c1cccc(Nc2cccc(C(=O)Nc3ccc(C45CC6CC(CC(C6)C4)C5)cc3)c2)c1 84
CN(c1cccc(N(C)c2ncccc2C(=O)O)c1)c1ccc(C23CC4CC(CC(C4)C2)C3)cc1Cl 100

Moving on to another molecule below.
Specify reported inhibition at 10 µM for the molecule shown: "COc1cccc(Nc2cccc(C(=O)Nc3ccc(C45CC6CC(CC(C6)C4)C5)cc3)c2)c1C(=O)O" 32

* * *

Target: TEAD2 (Homo sapiens (Human))
Experiment: In vitro palmitoylation (TEAD2 autopalmitoylation, streptavidin blot)
Type: biochemical
Details: compound at 10 μM; Table 3
I'd be grateful if you could share measured inhibition at 10 µM for these entries.
Answers are plain numbers, in %.

MOLECULE	EXPERIMENTAL RESULT
CN(c1ccc(Nc2ncccc2C(=O)O)cc1)c1ccc(C(F)(F)F)cc1 [CP-541]	80

Provide inhibition at 10 µM values for the following items, in order.
1. O=C(Nc1ccc(C2CCCCC2)cc1Cl)c1cccc(Nc2ccccc2C(=O)O)c1 [CP-666]
2. Cc1cc(N(C)c2ccc(C3CCCCC3)cc2)ccc1Nc1ccc(N2CCOCC2)cc1C(=O)O [CP-621]
3. O=C(O)c1cccc(Nc2cccc(Nc3ccc(C4CCCCC4)cc3Cl)c2)n1 [CP-682]
4. N#Cc1cccc(Nc2ccc(Nc3ccc(C45CC6CC(CC(C6)C4)C5)cc3Cl)cc2)n1 [CP-688]
5. COc1ccc(Nc2ccc(N(C)c3ccc(C)cc3)cc2)c(C(=O)O)c1 [CP-554]
6. COc1ccc(Nc2ccc(N(C)c3ccc(N4CCCCC4)cc3)cc2)c(C(=O)O)c1 [CP-555]

1: 79; 2: 47; 3: 51; 4: 17; 5: 96; 6: 100

Please supply inhibition at 10 µM for each of the following items, keeping them in order.
1. COc1ccc(Nc2ccc(N(C)c3ccc(C4=CCC(F)(F)CC4)cc3)cc2)c(C(=O)O)c1 [CP-557]
2. Cc1cc(N(C)c2ccc(C3CCCCC3)cc2)ccc1Nc1ccc(OC(F)(F)F)cc1C(=O)O [CP-580]
3. COc1ccc(Nc2ccc(N(C)c3ccc(C4CC5CCC4C5)cc3)cc2C)c(C(=O)O)c1 (centres unmarked) [CP-577]
4. O=C(O)c1ccccc1Nc1cnc(Oc2ccc(C3CCCCC3)cc2Cl)cn1 [CP-559]
5. CNS(=O)(=O)c1ccc(Nc2ccc(N(C)c3ccc(C4CCCCC4)cc3)cc2C)c(C(=O)O)c1 [CP-614]

1. 34
2. 58
3. 79
4. 79
5. 83

Go through the list and state inhibition at 10 µM for each entry.
1. COCCC(=O)Nc1ccc(C(=O)OC)c(Nc2ccc(N(C)c3ccc(C45CC6CC(CC(C6)C4)C5)cc3)cc2)c1 [CP-472]
2. COc1ccc(Nc2ccc(Oc3ccc(C(F)(F)F)cc3Cl)cc2)c(C(=O)O)c1 [CP-544]
3. Cc1cc(N(C)c2ccc(C3CCCCC3)cc2)ccc1Nc1ccc(F)cc1C(=O)O [CP-625]
4. Cc1cc(N(C)c2ccc(C3CCCCC3)cc2)ccc1Nc1ccc(CN)cc1C(=O)O [CP-635]
5. COc1ccc(Nc2cccc(C(=O)Nc3ccc(C(F)(F)F)cc3)c2)c(C(=O)O)c1 [CP-586]

1. 1
2. 98
3. 87
4. 27
5. 40

* * *

Provide the reported inhibition at 10 µM of each item.
Biological target: TEAD2 (Homo sapiens (Human), UniProt Q15562)
Assay: In vitro palmitoylation (TEAD2 autopalmitoylation, streptavidin blot)
Format: biochemical
Conditions: compound at 10 μM; Table 2
Answers are plain numbers, in %.

Report inhibition at 10 µM for each item below.
1. CCOC(=O)c1cccc(Nc2ccc(C(=O)Nc3ccc(C45CC6CC(CC(C6)C4)C5)cc3)cc2)n1
2. COc1cc(Nc2ccc(Nc3ccc(C45CC6CC(CC(C6)C4)C5)cc3)cc2)c(C(=O)O)c(OC)c1
3. CC1(C)OC(C(=O)O)C(C(=O)Nc2ccc(Nc3ccc(C45CC6CC(CC(C6)C4)C5)cc3Cl)cc2)O1 (stereo not shown)
4. O=C(O)c1cccc(Nc2ccc(Nc3ccc(C45CC6CC(CC(C6)C4)C5)cc3Cl)cc2)c1
5. COc1cccc(N(C)c2ccc(N(C)c3ccc(C45CC6CC(CC(C6)C4)C5)cc3)cc2)c1C(=O)O
6. CN(c1ccc(S(=O)(=O)N(C)c2ccc(C34CC5CC(CC(C5)C3)C4)cc2)cc1)c1ncccc1C(=O)O
7. O=C(Nc1ccccc1C(=O)O)c1ccc(Nc2ccc(C34CC5CC(CC(C5)C3)C4)cc2Cl)cc1

0
1
77
98
100
0
91
